Hey, just so you know, these numbers are from ChEMBL document CHEMBL2311253.

target: Muscarinic acetylcholine receptor M1 (Homo sapiens); assay: Positive allosteric modulator activity at human muscarinic M1 receptor assessed as fold shift of acetylcholine concentration curve to the left at 30 uM by calcium mobilization assay relative to untreated acetylcholine control; format: functional
valueKind: fold change (FC)

Cn1cc(-c2ccc(CN3C(=O)C(C)(O)c4ccccc43)c(F)c2)cn1 (racemic) :: 6.5

P: Cn1cc(-c2ccc(CN3C(=O)C(O)(CF)c4ccccc43)c(F)c2)cn1 (racemic)
Q: Cn1cc(-c2ccc(CN3C(=O)C(=O)c4ccccc43)c(F)c2)cn1
Enquiry: Consider P and Q . Which of these has its fold change (FC) at a higher number? Output the label that corresponds to your choice.
Return: P

---

target: Muscarinic acetylcholine receptor M1 (Homo sapiens); experiment: Positive allosteric modulator activity at human muscarinic M1 receptor relative to acetylcholine by calcium mobilization assay; type: functional; parameters: concentration or dose not given beside the values
valueKind: Activity (%)

P: CC1C(=O)N(Cc2ccc(-c3cnn(C)c3)cc2F)c2ccccc21 (racemic)
Q: CCn1cc(-c2ccc(CN3C(=O)C(O)(C(F)(F)F)c4ccccc43)c(F)c2)cn1 (racemic)
Enquiry: Consider P and Q . Which of these has its Activity at a higher number? Output the label that corresponds to your choice.
Return: P

P: Cn1cc(-c2ccc(CN3C(=O)C(C)(N)c4ccccc43)c(F)c2)cn1 (racemic)
Q: CN(C)C1(C)C(=O)N(Cc2ccc(-c3cnn(C)c3)cc2)c2ccccc21 (racemic)
Enquiry: Which value of Activity is smaller, the one for P or the one for Q ? Output the label that corresponds to your choice.
Return: P
(P: 28%, Q: 48%)

---

biological target: Muscarinic acetylcholine receptor M1 (Homo sapiens); assay: Positive allosteric modulator activity at human muscarinic M1 receptor by calcium mobilization assay; format: functional
pEC50: −log10 of the molar value.
pEC50 listing for selected compounds.

Cn1cc(-c2ccc(CN3C(=O)NCc4ccccc43)c(F)c2)cn1 :: < 5.00
Cn1cc(-c2ccc(CN3C(=O)C(=O)c4ccccc43)c(F)c2)cn1 :: 6.22
Cn1cc(-c2ccc(CN3C(=O)C(O)(C(F)(F)F)c4ccccc43)c(Cl)c2)cn1 (racemic) :: < 5.00

Enquiry: May I ask what pEC50 has been recorded for `Cn1cc(-c2ccc(CN3c4ccccc4CS3(=O)=O)c(F)c2)cn1` ?
Return: < 5.00

---

Target: Muscarinic acetylcholine receptor M1 (Homo sapiens)
Sequence (whole entry): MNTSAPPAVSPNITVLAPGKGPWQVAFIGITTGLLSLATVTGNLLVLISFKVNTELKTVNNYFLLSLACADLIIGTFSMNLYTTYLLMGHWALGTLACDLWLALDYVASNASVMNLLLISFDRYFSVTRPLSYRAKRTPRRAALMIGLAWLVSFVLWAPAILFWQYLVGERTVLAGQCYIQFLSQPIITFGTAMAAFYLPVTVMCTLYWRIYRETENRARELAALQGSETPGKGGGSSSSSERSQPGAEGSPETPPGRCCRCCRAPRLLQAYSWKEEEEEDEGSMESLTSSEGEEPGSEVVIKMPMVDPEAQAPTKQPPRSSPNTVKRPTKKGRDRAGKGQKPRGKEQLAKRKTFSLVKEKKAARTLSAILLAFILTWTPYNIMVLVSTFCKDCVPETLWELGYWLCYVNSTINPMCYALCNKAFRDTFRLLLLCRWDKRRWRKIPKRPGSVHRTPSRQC
Test: Positive allosteric modulator activity at human muscarinic M1 receptor relative to acetylcholine by calcium mobilization assay
Assay type: functional
Design: concentration or dose not given beside the values
valueKind: Activity (%)

Example entries and their recorded answers appear below.
Cn1cc(-c2ccc(CN3C(=O)C(N)c4ccccc43)c(F)c2)cn1 (racemic) :: 50
Cn1cc(-c2ccc(CN3C(=O)C[S+]([O-])c4ccccc43)c(F)c2)cn1 (centres undefined) :: 46
Cn1cc(-c2ccc(Cn3c(=O)ccc4ccccc43)c(F)c2)cn1 :: 51
Cn1cc(-c2ccc(CN3C(=O)NCc4ccccc43)c(F)c2)cn1 :: 53
Cn1cc(-c2ccc(CN3C(=O)C(O)(CF)c4ccccc43)c(F)c2)cn1 (racemic) :: 59

a: Cn1cc(-c2ccc(CN3C(=O)CSc4ccccc43)c(F)c2)cn1
b: Cn1cc(-c2ccc(CN3C(=O)C(=O)c4ccccc43)c(F)c2)cn1
Enquiry: Which value of Activity is smaller, the one for a or the one for b ? Output the label that corresponds to your choice.
Return: a
(a: 30%, b: 45%)

P: Cn1cc(-c2ccc(CN3C(=O)C(C)(O)c4ccccc43)c(F)c2)cn1 (racemic)
Q: Cn1cc(-c2ccc(CN3C(=O)C(F)(C(F)(F)F)c4ccccc43)c(F)c2)cn1 (racemic)
Enquiry: Consider P and Q . Which of these has its Activity at a higher number? Output the label that corresponds to your choice.
Return: P
(P: 49%, Q: 25%)
